targetSystem: Inadl_10, Q8NI35
Sequence (Q8NI35 1673-1763): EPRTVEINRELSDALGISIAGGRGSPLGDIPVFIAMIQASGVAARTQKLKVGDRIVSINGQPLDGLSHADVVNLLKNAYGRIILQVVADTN
assayText: holdup assay
Parameters: key: below the threshold = too weak to quantify, mostly under pKd 3.1 to 4
conditionsUsed: plain residues with an end cap or a label only (N-terminal biotin on a linker: ado-ado)
recordedMetric: pKd

// solved cases for pKd follow
Record summary for PSDSVGKDVF [EGLN1, Q9GZT9] : reported pKd = below the threshold

Entry under test: HLSTRQGTCV [ATRNL1, Q5VV63] . Its pKd was below the threshold

Field pKd (entry MQILSKPEFI [NPSR1, Q6W5P4] ) reads below the threshold

Lab note: GDSSRKEYFI [GYPC, P04921] gave pKd of below the threshold

The recorded pKd for KKTPVSRSHL [SLC22A3, O75751] is below the threshold

Data point: NISARRFTLC [FAM167B, Q9BTA0] ; pKd = below the threshold

Documented pKd of GVHSNDHSVV [LPAR1, Q92633] : below the threshold

Record PDSYHRRDFW [U2AF2, P26368] . Reported pKd: below the threshold

Form field pKd, entry TNSKQGETTV [FZD1, Q9UP38] : below the threshold

For this binder ( KPDKQEEFYA [SDC3, O75056] ), measured pKd is below the threshold

***
Lab note: measured pKd of NTALVESEDL [PALLS, Q8WX93;Q8WX93-1] was below the threshold

Just so you know, measured pKd for NKSEPFLTWL [WWTR1, Q9GZV5] came out at 4.63

// field: pKd; key: TKDKVQETQI [LRRC4, Q9HBW1] ; value = below the threshold

The value of pKd measured for the binder PALKNGQYWV [CSPG4, Q6UVK1] turned out to be below the threshold

Reported pKd of ELKAEDEVQI [DCHS2, Q6V1P9] : below the threshold

The binder identified as TKEIPNCTSV [SORCS3, Q9UPU3] registered its pKd at 3.95

Where do the numbers come from? From paper PMC9482650.
